B1: library; numbered along this chain (parent)
chain: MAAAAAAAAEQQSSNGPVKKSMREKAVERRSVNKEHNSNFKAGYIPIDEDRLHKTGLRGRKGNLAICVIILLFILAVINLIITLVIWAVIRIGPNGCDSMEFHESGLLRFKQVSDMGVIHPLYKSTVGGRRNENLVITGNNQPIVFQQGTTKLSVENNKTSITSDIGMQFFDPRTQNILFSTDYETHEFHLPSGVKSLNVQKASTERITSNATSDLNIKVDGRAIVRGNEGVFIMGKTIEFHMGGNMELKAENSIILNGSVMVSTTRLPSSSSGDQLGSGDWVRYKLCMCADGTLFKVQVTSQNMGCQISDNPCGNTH

Variants of: B1
ASSAY_COMMENT: SGCB cell-surface expression functional score (HA stain, bin4 vs bin1, normalised to synonymous) (log10 ratio); higher = more cell-surface SGCB (functional)
SGCB cell-surface expression functional score (log10) of -0.4 or higher: true. Under -0.4: false.

VARIANT_LABEL | CLASS_NAME
K19L | true
F233P | false
V195Q | false
G62D | true
V261S | true
K34Y | true
M243K | false
S310D | true
I137Q | false
W87E | false
L198I | false
T209N | false
I47L | true
E104L | true
Q12S | true
I234F | true
S164Q | false
R51P | true
F233N | true
M235R | true
G222M | true
K219E | true
R60T | true
I70F | true
D311K | true
V127A | false
N132I | true
S302D | false
G43S | true
M100Y | false
C288L | false
N132A | true
N140V | true
G274W | true
I144N | false
M22G | true
A224T | true
D115G | false
N316A | true
D311Y | false
E104W | true
S197Q | true
I208H | false
G117S | true
T138R | true
E10D | true
S161V | true
L108I | true
L249M | true
E133Y | true
S125T | true
F241G | false
F180E | false
K111A | false
I70D | true
I90G | false
N63Y | true
N316V | true
M243Q | true
C314N | false
S210I | false
H36D | true
V145K | true
K152V | true
N15M | true
Q112L | false
E104V | true
N258F | true
D311H | true
N316M | true
N79M | false
G315A | true
T301E | true
Y184D | false
Y44R | true
I92N | false
M262P | true
Q276W | false
T294K | true
R267W | false
A6R | true
R207K | false
A212V | true
G16C | true
E10V | true
R91G | false
T209P | false
V220T | true
S214G | true
L287Q | false
